The entries below come with measured CC50 at 72 h values attached.
Assay: Cytotoxicity against african green monkey Vero cells assessed as reduction in cell viability after 72 hrs by cell titer-blue fluorescent assay
Assay type: cell-based
Details: chlorocebus sabaeus
quantity_measured: CC50 at 72 h

{"columns": ["molecule", "result"],
 "data": [
  ["O=C1NC(=S)S/C1=C\\c1ccc(Cl)cc1", "> 100 µM"],
  ["CN(C)c1ccc(/C=C2\\SC(=S)NC2=O)cc1", "> 100 µM"],
  ["O=C1NC(=S)S/C1=C\\c1ccc2ccccc2c1", "> 100 µM"],
  ["NC1=NC(=O)/C(=C/c2ccccc2[N+](=O)[O-])S1", "> 100 µM"],
  ["O=C1NC(=S)S/C1=C\\c1ccc(O)cc1", "> 100 µM"],
  ["N=C1NC(=O)/C(=C/c2ccc(O)cc2)S1 [MIRIN]", "> 100 µM"],
  ["COc1ccc(/C=C2\\SC(=S)NC2=O)cc1", "> 100 µM"],
  ["O=C1NC(=S)S/C1=C\\c1cccs1", "> 100 µM"],
  ["O=C1NC(=S)S/C1=C\\c1ccccc1[N+](=O)[O-]", "> 100 µM"]
]}
